# Test system: LoVo
# assay_name: Cytotoxicity against human doxorubicin resistant LoVo cells after 48 hrs by SRB assay
# Type: functional
quantity: TGI (nM)

>>> result_number("C/C=C1\\NC(=O)[C@H](Cc2ccccc2)NC(=O)[C@@H](C(C)C)NC(=O)[C@@H]([C@H](C)CC)NC(=O)[C@H](NC(=O)[C@H](NC(=O)[C@H](CCCNC(=O)/C=C/CCC)NC(=O)[C@H]2CCCN2C(=O)[C@H](NC(=O)[C@@H](NC(=O)[C@@H](NC(=O)[C@H](NC(=O)CCCC(C)C)C(C)C)[C@@H](C)O)C(C)C)C(C)C)[C@H](C)CC)[C@H](C)OC(=O)[C@H](C(C)C)NC1=O")
116
>>> result_number("C/C=C1\\NC(=O)[C@H](Cc2ccc(Cl)cc2)NC(=O)[C@@H](C(C)C)NC(=O)[C@@H]([C@H](C)CC)NC(=O)[C@H](NC(=O)[C@H](NC(=O)[C@H](CCCN)NC(=O)[C@H]2CCCN2C(=O)[C@H](NC(=O)[C@@H](NC(=O)[C@@H](NC(=O)[C@H](NC(=O)CCCC(C)C)C(C)C)[C@@H](C)O)C(C)C)C(C)C)[C@H](C)CC)[C@H](C)OC(=O)[C@H](C(C)C)NC1=O")
44.9
>>> result_number("C/C=C1\\NC(=O)[C@H](Cc2ccccc2)NC(=O)[C@@H](C(C)C)NC(=O)[C@@H]([C@H](C)CC)NC(=O)[C@H](NC(=O)[C@H](NC(=O)[C@H](CCCN)NC(=O)[C@H]2CCCN2C(=O)[C@H](NC(=O)[C@@H](NC(=O)[C@@H](NC(=O)[C@H](NC(=O)CC[C@H](C)CC)C(C)C)[C@@H](C)O)C(C)C)C(C)C)[C@H](C)CC)[C@H](C)OC(=O)[C@H](C(C)C)NC1=O")
1040
>>> result_number("C/C=C1\\NC(=O)[C@H](Cc2ccc(I)cc2)NC(=O)[C@@H](C(C)C)NC(=O)[C@@H]([C@H](C)CC)NC(=O)[C@H](NC(=O)[C@H](NC(=O)[C@H](CCCN)NC(=O)[C@H]2CCCN2C(=O)[C@H](NC(=O)[C@@H](NC(=O)[C@@H](NC(=O)[C@H](NC(=O)CC[C@@H](C)CC)C(C)C)[C@@H](C)O)C(C)C)C(C)C)[C@H](C)CC)[C@H](C)OC(=O)[C@H](C(C)C)NC1=O")
183
>>> result_number("C/C=C1\\NC(=O)[C@H](Cc2ccccc2)NC(=O)[C@@H](C(C)C)NC(=O)[C@@H]([C@H](C)CC)NC(=O)[C@H](NC(=O)[C@H](NC(=O)[C@H](CCCN)NC(=O)[C@H]2CCCN2C(=O)[C@H](NC(=O)[C@@H](NC(=O)[C@@H](NC(=O)[C@H](NC(=O)CCCC(C)C)C(C)C)[C@@H](C)O)C(C)C)C(C)C)[C@H](C)CC)[C@@H](C)OC(=O)[C@H](C(C)C)NC1=O")
7370
